# viscosity per entry
# reported.conditions: 293.15 K; 101 kPa; Liquid; Capillary tube (Ostwald / Ubbelohde) method
Output spec: scalar in mPa·s, unitless text.

Worked cases, answers included:
[[record]]
chemical_smiles = "CCCCC1CCCCC1"
endpoint_label = "viscosity"
readout_number = 1.302

[[record]]
chemical_smiles = "CCC1CCCCC1"
endpoint_label = "viscosity"
readout_number = 0.845

[[record]]
chemical_smiles = "CC1CCCCC1"
endpoint_label = "viscosity"
readout_number = 0.733


Now for another entry.
Req: Fill blank: measured viscosity of the compound C1CCCCC1 is ____.
Resp: 0.977

Values compiled from the NIST ThermoML archive (doi:10.1021/je400529k).
